molecular target: T. gondii CDPK1 (tgCDPK1) (Toxoplasma gondii, UniProt Q9BJF5); assay: Inhibition of T. gondii CDPK1 (tgCDPK1), IC50 determination; settings: at least three independent replicates per compound
Sequence (Q9BJF5 1-507): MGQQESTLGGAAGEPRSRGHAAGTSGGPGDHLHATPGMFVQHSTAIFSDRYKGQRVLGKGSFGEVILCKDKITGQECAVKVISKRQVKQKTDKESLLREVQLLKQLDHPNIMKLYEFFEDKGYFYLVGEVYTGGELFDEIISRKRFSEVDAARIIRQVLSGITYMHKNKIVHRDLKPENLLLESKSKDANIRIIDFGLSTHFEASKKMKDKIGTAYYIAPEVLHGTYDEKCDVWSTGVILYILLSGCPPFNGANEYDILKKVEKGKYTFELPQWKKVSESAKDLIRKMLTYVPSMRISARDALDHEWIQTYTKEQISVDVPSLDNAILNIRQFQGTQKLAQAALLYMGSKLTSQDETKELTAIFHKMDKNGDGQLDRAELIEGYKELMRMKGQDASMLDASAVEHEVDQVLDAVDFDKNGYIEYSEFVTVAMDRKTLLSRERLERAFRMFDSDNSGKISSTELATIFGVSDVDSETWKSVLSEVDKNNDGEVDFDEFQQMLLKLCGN
quantity.measured: IC50 (nM)
Report as a plain number; the unit nM is understood.

Some entries whose results are on file:
Nc1ncnc2c1c(Cc1cc(F)cc(Cl)c1)nn2C1CC1 [Compound 4] = 91.7
Nc1ncnc2c1c(Cc1cccc(F)c1)nn2C1CC1 [Compound 5] = 25.3
Nc1ncnc2c1c(Cc1cccc(-c3ccccc3)c1)nn2C1CC1 [Compound 9] = 26.3

Moving on to the next molecule.
Ask: Requested read-out: IC50. Entry: Nc1ncnc2c1c(Cc1ccccc1)nn2C1CC1 [Compound 17]
Reply: 25.4
